assay details: melting temperature; fluorescence melt of hairpins on a sequencing array, two-state fit, raised by 9.35 °C to match UV melts
conditions used: sodium 0.088 M
Grouping key: Tm. Bins: A (below 50 °C), B (50 °C to below 60 °C), C (60 °C or more)

[[record]]
residues = "GATACCCGAAAGGGATC (((.(((....))))))"
label = "A"

[[record]]
residues = "GACGTGCCGAAAGGCGTC (((..(((....))))))"
label = "A"

[[record]]
residues = "GCCTAAGGAAACCTAGGC (((((.(....).)))))"
label = "A"

[[record]]
residues = "GCAAGCCGAAAGGCTGC (((.(((....))))))"
label = "C"

[[record]]
residues = "GGATACGAAAGTACATCC ((((((....)))..)))"
label = "A"

[[record]]
residues = "GACCTCGGAAACGGGGTC ((((.((....)).))))"
label = "B"


###

assay details: melting temperature; fluorescence melt of hairpins on a sequencing array, two-state fit, raised by 9.35 °C to match UV melts
conditions used: sodium 0.088 M
measurement name: Tm (°C)

[[record]]
residues = "GATCGTTGGGACGATC ((((((....))))))"
val = 59

[[record]]
residues = "GAGCTCACGAAAGTGCTC (((..(((....))))))"
val = 44.4

[[record]]
residues = "GCTAGGCGAAAGCCGCGC ((..(((....)))..))"
val = 62

[[record]]
residues = "GACCGAGGAAACTCAGTC (((.(((....))).)))"
val = 34.4

[[record]]
residues = "GAGTCCGGAAACAGACTC (((((.(....).)))))"
val = 41.6

[[record]]
residues = "GATCTAACTTAGATC ((((((...))))))"
val = 37.3


###

The sequences listed here are annotated with their Tm.
assay details: melting temperature; fluorescence melt of hairpins on a sequencing array, two-state fit, raised by 9.35 °C to match UV melts
conditions used: sodium 0.088 M
measurement name: Tm (°C)

[[record]]
residues = "GCAACCGAAAGGTGGTGC ((((((....)))..)))"
val = 48.6

[[record]]
residues = "GGTGCCCGAAAGGGAACC (((.(((....))).)))"
val = 65.1

[[record]]
residues = "GAGTTTGGAAACGAATTC ((.((.(....).)).))"
val = 33.5

[[record]]
residues = "GGTCTTGGAAACGAGACC (((((.(....).)))))"
val = 51.9

[[record]]
residues = "GATCGTTGCAACGATC ((((((....))))))"
val = 59.2

[[record]]
residues = "GATCTTACTCAAGATC ((((((....))))))"
val = 42.3

[[record]]
residues = "CGCGGAAATCTCCGCG ((((((....))))))"
val = 62.2

[[record]]
residues = "GCAGAACGAAAGTTTGC (((.(((....))))))"
val = 44.7

[[record]]
residues = "GCAAGCGAAAGCTGTGC ((((((....))).)))"
val = 55.9

[[record]]
residues = "GGTATTGGAAACAATATC (.(((((....))))).)"
val = 37.1

[[record]]
residues = "GATCAGATTGCTGATC ((((((....))))))"
val = 49.5

[[record]]
residues = "GGTCTCGAAAGAGTCACC ((((((....)))..)))"
val = 31.3


###

The sequences listed here are annotated with their Tm.
assay details: melting temperature; fluorescence melt of hairpins on a sequencing array, two-state fit, raised by 9.35 °C to match UV melts
conditions used: sodium 0.088 M
measurement name: Tm (°C)

[[record]]
residues = "GGGAAGGCGAAAGCCCCC (((..(((....))))))"
val = 48.1

[[record]]
residues = "GGTAACGAAAGTTAACC ((((((....))).)))"
val = 45.3

[[record]]
residues = "CGGACGGAAACGTAGCCG ((((((....)))..)))"
val = 33.4

[[record]]
residues = "GCCCGTGGAAACATGGGC ((((.((....)).))))"
val = 61.2

[[record]]
residues = "GTGGCGGGAAACTGCCAC (((((.(....).)))))"
val = 60.7

[[record]]
residues = "GGTGTAGGAAACTACACC (((((((....)))))))"
val = 60.4

[[record]]
residues = "CGGGACGGAAACGTCCG (((.(((....))))))"
val = 57.9

[[record]]
residues = "GATAGCGGAAACGCTACC (.(((((....))))).)"
val = 40.4

[[record]]
residues = "GATCTATGATTAGATC ((((((....))))))"
val = 39.8

[[record]]
residues = "GAAACCCGAAAGGGCTTC (((.(((....))).)))"
val = 46.4

[[record]]
residues = "GGCGGTCGAAAGACAGCC (((.(((....))).)))"
val = 67.7

[[record]]
residues = "GCACGCGAAAGCGTTGC ((((((....))).)))"
val = 64.7

[[record]]
residues = "GTGTGGGGAAACCTACGC (.((.((....)).)).)"
val = 39.2

[[record]]
residues = "GTCTACGAAAGTAATGAC ((((((....)))..)))"
val = 30.7

[[record]]
residues = "GTGGTCGAAAGACTTCAC ((((((....)))..)))"
val = 31.9

[[record]]
residues = "GCTAACCGAAAGGTCAGC (((.(((....))).)))"
val = 49.7

[[record]]
residues = "GGCAAAACGAAAGTTGCC (((..(((....))))))"
val = 52.7

[[record]]
residues = "GATCGAAAAATCGATC ((((((....))))))"
val = 43.9

[[record]]
residues = "GAGGATGGAAACATCCTC (((((((....)))))))"
val = 61.3

[[record]]
residues = "GTCGCAGGAAACTGCAAC ((.((((....)))).))"
val = 41.1

[[record]]
residues = "GGCATCGAAAGATCGCC ((((((....))).)))"
val = 50.4

[[record]]
residues = "CGGCGACGGAAACGTCCG (((..(((....))))))"
val = 38.5

[[record]]
residues = "GAGGAGGGAAACCTCCTC (((((((....)))))))"
val = 65.3

[[record]]
residues = "GCTATCACGAAAGTGAGC (((..(((....))))))"
val = 36.1

[[record]]
residues = "GAGCTCGGAAACGAACTC (((.(((....))).)))"
val = 44.9

[[record]]
residues = "GGTCTCGAAAGAGGTACC ((((((....)))..)))"
val = 35

[[record]]
residues = "GTGGAGACGAAAGTCCAC (((..(((....))))))"
val = 47.6

[[record]]
residues = "GACTAAGGAAACTTAGCC (.(((((....))))).)"
val = 31.3

[[record]]
residues = "GCGTCGCGAAAGCCAGGC ((.(.((....)).).))"
val = 33.8

[[record]]
residues = "GCCTCTGCGAAAGCAGGC (((..(((....))))))"
val = 50

[[record]]
residues = "GGCAAGGGAAACCCTGCC ((((.((....)).))))"
val = 53.2

[[record]]
residues = "GTGGATGGAAACGTCCAC (((((.(....).)))))"
val = 53

[[record]]
residues = "CGCGGATCGCTCCGCG ((((((....))))))"
val = 69.2

[[record]]
residues = "GATCCTACTTAGGATC ((((((....))))))"
val = 53.2

[[record]]
residues = "GATCGTAGTGACGATC ((((((....))))))"
val = 56.6

[[record]]
residues = "GCACCGCGAAAGCTGTGC ((((.((....)).))))"
val = 66.2

[[record]]
residues = "GCCATCGAAAGATCGGC ((((((....))).)))"
val = 48.2

[[record]]
residues = "GCTTAGCGAAAGCGGAGC (((..((....))..)))"
val = 58.7

[[record]]
residues = "CGCGCGGAAACGCTGCG ((((((....))).)))"
val = 57.1

[[record]]
residues = "GACCCCGGAAACGAGGTC ((((.((....)).))))"
val = 48

[[record]]
residues = "GAGTATCCGAAAGGACTC (((..(((....))))))"
val = 29.2

[[record]]
residues = "GCCGGCCCGAAAGGGGGC (((..(((....))))))"
val = 58.3

[[record]]
residues = "GCATAATCGAAAGATTGC (((..(((....))))))"
val = 37.2

[[record]]
residues = "GGTCTGCGAAAGCAACC (((.(((....))))))"
val = 44.6

[[record]]
residues = "GGTGATGCGAAAGCAACC (((..(((....))))))"
val = 36.9

[[record]]
residues = "GCTCTCCGAAAGGAAAGC (((.(((....))).)))"
val = 46.5

[[record]]
residues = "GGAAGAGGAAACTCTCCC ((.((((....)))).))"
val = 32.9

[[record]]
residues = "GCCCCGCGAAAGCGCTGC ((..(((....)))..))"
val = 31.6

[[record]]
residues = "CGGGACGGAAACGTTCCG (((.(((....))).)))"
val = 59.4

